B1: PKD2L1 (parent)
chain: VFIFYYVVEEILELHIHRLRYLSS

variants of: B1; assay: protein stability index of a GFP-peptide fusion (GPS, HEK-293T) (PSI 1-6); higher = more stable; conditions: c terminus: a fixed tail appended;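 also: lentivirally expressed fusions sorted by FACS into six bins by GFP to DsRed ratio, PSI derived from sequencing read proportions per bin multiplied by bin number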
Measured parameter: protein stability index
Keep it simple and answer with nothing but the number.

## Input Given the entry S23V , report its measured protein stability index.
## Output 3.04

## Input F4Q , same question.
## Output 2.99

## Input E9W , same question.
## Output 4.55

## Input V1R , same question.
## Output 2.23

## Input V8W , same question.
## Output 2.57

## Input R18M , same question.
## Output 3.01
